Hey, just so you know, these numbers are from PubChem BioAssay AID732.

- Tested on: in vivo angiogenesis, blood vessel count
- experiment description: reduction of blood vessel formation in vivo – HTS, in vivo study (AID 732);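 note: zebrafish embryos dosed at one day post fertilization; 0% = reference inhibitor and 100% = plate mean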
- measurement conditions: hits give low values;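 tested at 30 µM in the well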
vessel count % control for assorted molecules
The answer is to be given in %; state only the numeric part.

Request the reported vessel count % control associated with CCCCCCC/C=C\CCCCCCCCC(=O)O
106

Request the reported vessel count % control associated with CN1CCC23CCCC[C@H]2C1Cc1ccc(O)cc13 (stereo partly drawn)
100

* * *

- System: in vivo angiogenesis, blood vessel count
- experiment description: reduction of blood vessel formation in vivo – HTS, in vivo study (AID 732)
- measurement conditions: hits give low values;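 tested at 30 µM in the well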
property label: vessel count % control (%)
The answer is to be given in %; state only the numeric part.

Some molecules with recorded vessel count % control:
molecule | property label | number
O=C(CCc1ccc(O)cc1)c1c(O)cc(O)cc1O | vessel count % control | 124
Cn1cnc2c(NCc3ccccc3)nc(NCCO)nc21 | vessel count % control | 98.8
O=C(O)C1=CCCN(CCON=C(c2ccccc2)c2ccccc2)C1 | vessel count % control | 104

With those in mind, consider the next molecule.
Request the reported vessel count % control associated with C=CCN1CCC23c4c5ccc(O)c4O[C@H]2C(=O)CC[C@@]3(O)C1C5 (some centres not stated)
88.4

* * *

- Test system: in vivo angiogenesis, blood vessel count
- experiment description: reduction of blood vessel formation in vivo – HTS, in vivo study (AID 732)
- measurement conditions: hits give low values;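 tested at 30 µM in the well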
vessel count % control for assorted compounds
The answer is to be given in %; state only the numeric part.

compound | property label | output unit | number
O=C(O)c1cc2cc(F)ccc2[nH]1 | vessel count % control | % | 104
COc1ccc2[nH]cc(CCN(C)C)c2c1 | vessel count % control | % | 83.1
NCCCCN | vessel count % control | % | 106
O=C(NCC1CCCCN1)c1cc(OCC(F)(F)F)ccc1OCC(F)(F)F (stereo not given) | vessel count % control | % | 127
NNC(N)=O | vessel count % control | % | 126

Request the reported vessel count % control associated with O=C(CCCN1CCC(O)(c2cccc(C(F)(F)F)c2)CC1)c1ccc(F)cc1
60.2

Request the reported vessel count % control associated with NS(=O)(=O)c1cccc2c1c([N+](=O)[O-])cc1nc(O)c(O)nc12
111

* * *

vessel count % control for assorted compounds
- Tested on: in vivo angiogenesis, blood vessel count
- experiment description: reduction of blood vessel formation in vivo – HTS, in vivo study (AID 732);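 note: zebrafish embryos dosed at one day post fertilization; 0% = reference inhibitor and 100% = plate mean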
- measurement conditions: hits give low values;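 tested at 30 µM in the well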
The answer is to be given in %; state only the numeric part.

Some compounds with recorded vessel count % control:
compound | vessel count % control (%)
N=C(N)c1ccc(OCCCCCOc2ccc(C(=N)N)cc2)cc1 (tested in a mixture with another compound) | 99.1
COc1cccc(OC)c1OCCNCC1COc2ccccc2O1 (stereo unspecified) | 90.6
O=C1CC2(CCCC2)CC(=O)N1CCCCN1CCN(c2ncccn2)CC1 | 114
C[C@](N)(Cc1ccc(O)c(O)c1)C(=O)O | 97.4
CCN(CC)CCOC(=O)C1(C2CCCCC2)CCCCC1 | 86.4

With those in mind, consider the next compound.
Request the reported vessel count % control associated with O=C(O)CCC(=O)N1CCCC1C(=O)O (stereo unspecified)
109

* * *

vessel count % control for assorted compounds
- System: in vivo angiogenesis, blood vessel count
- experiment description: reduction of blood vessel formation in vivo – HTS, in vivo study (AID 732);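 note: zebrafish embryos dosed at one day post fertilization; 0% = reference inhibitor and 100% = plate mean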
- measurement conditions: hits give low values;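 tested at 30 µM in the well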
The answer is to be given in %; state only the numeric part.

Some compounds with recorded vessel count % control:
compound | property label | output unit | number
S=C=Nc1cccc(C2(N3CCCCC3)CCCCC2)c1 | vessel count % control | % | 91
Cc1c(CC(C)(C)C(=O)O)n(Cc2ccc(Cl)cc2)c2ccc(F)cc12 | vessel count % control | % | 127
CC(C[N+](C)(C)C)OC(N)=O (stereo not drawn) | vessel count % control | % | 91.7
CN/C(=C\[N+](=O)[O-])NCCSCc1ccc(CN(C)C)o1 | vessel count % control | % | 112
C[C@@H]1O[C@@H](O[C@H]2C[C@@H](O)[C@]3(CO)[C@@H]4C(CC[C@]3(O)C2)[C@@]2(O)CC[C@H](C3COC(=O)C3)[C@@]2(C)C[C@H]4O)[C@H](O)[C@H](O)[C@H]1O (stereo partly drawn) | vessel count % control | % | 104

Request the reported vessel count % control associated with O=[N+]([O-])c1cc(O)c(O)c([N+](=O)[O-])c1
89.3

Request the reported vessel count % control associated with CC1=C(/C=C/C(C)=C/C=C/C(C)=C/C(=O)Nc2ccc(O)cc2)C(C)(C)CCC1
96.8

Request the reported vessel count % control associated with CCCCCC[C@@H]([C@@H](C)O)n1cnc2c(N)ncnc21
85.8

Request the reported vessel count % control associated with COc1ccc2[nH]c(I)c(CCNC(C)=O)c2c1
107

Request the reported vessel count % control associated with COc1cc2c(CCNC(C)=O)c[nH]c2cc1O
105

Request the reported vessel count % control associated with O=C(c1ccc(F)cc1)C1CCN(CCn2c(=O)[nH]c3ccccc3c2=O)CC1
103

Request the reported vessel count % control associated with NCCCNCCSP(=O)(O)O
93.3

Request the reported vessel count % control associated with Cc1c(OCC(F)(F)F)ccnc1CS(=O)c1nc2ccccc2[nH]1 (stereo not drawn)
76.7

Request the reported vessel count % control associated with CCCn1c(=O)c2[nH]c(C3CCCC3)nc2n(CCCOC(=O)c2ccc(S(=O)(=O)F)cc2)c1=O
117

Request the reported vessel count % control associated with C=C(C)[C@H]1CN[C@H](C(=O)O)[C@H]1CC(=O)O
123

Request the reported vessel count % control associated with COc1ccccc1N1CCN(CCCNc2c(C)c(=O)n(C)c(=O)n2C)CC1
70.6

Request the reported vessel count % control associated with CN1C2CCC1CC(OC(=O)c1c[nH]c3ccccc13)C2 (stereo not drawn)
91.1

Request the reported vessel count % control associated with C[n+]1cc2c3c(ccc2c2ccc4cc5c(cc4c21)OCO5)OCO3
0

Request the reported vessel count % control associated with CCCCCCCC/C=C\CCCCCCCC(=O)NCCc1ccc(O)c(O)c1
115

Request the reported vessel count % control associated with C[C@]12N[C@H](Cc3ccccc31)c1ccccc12
85.8

Request the reported vessel count % control associated with CC(C)(C)NCC(O)COc1cccc2[nH]c(=O)[nH]c12 (stereo not drawn)
103

Request the reported vessel count % control associated with CN1CCc2cc(Cl)c(O)cc2[C@@H](c2ccccc2)C1
97.5

Request the reported vessel count % control associated with NC(N)=[N+]1CCc2ccccc2C1
113

Request the reported vessel count % control associated with CCNC(=O)[C@H]1O[C@@H](n2cnc3c(N)ncnc32)C(O)[C@H]1O (stereo partly drawn)
110

Request the reported vessel count % control associated with CC(N)[C@H](O)c1ccc(O)c(O)c1 (stereo partly drawn)
106

Request the reported vessel count % control associated with Fc1ccc([C@@H]2CCNC[C@H]2COc2ccc3c(c2)OCO3)cc1
138

Request the reported vessel count % control associated with CC1CC2C3CCC4=CC(=O)C=C[C@]4(C)[C@@]3(F)[C@@H](O)C[C@]2(C)[C@@]1(O)C(=O)CO (stereo partly drawn)
129

Request the reported vessel count % control associated with N[C@@H](Cn1cc(I)c(=O)[nH]c1=O)C(=O)O
107

Request the reported vessel count % control associated with CC[C@H](C)C(=O)O[C@H]1CCC=C2C=C[C@H](C)[C@H](CC[C@@H]3C[C@@H](O)CC(=O)O3)[C@H]21
88.5

* * *

- System: in vivo angiogenesis, blood vessel count
- experiment description: reduction of blood vessel formation in vivo – HTS, in vivo study (AID 732);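 note: zebrafish embryos dosed at one day post fertilization; 0% = reference inhibitor and 100% = plate mean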
- measurement conditions: hits give low values;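 tested at 30 µM in the well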
property label: vessel count % control (%)
The answer is to be given in %; state only the numeric part.

molecule | vessel count % control, %
CC[C@H](NC(=O)c1c(C)c(-c2ccccc2)nc2ccccc12)c1ccccc1 | 126

Request the reported vessel count % control associated with Cn1cc(C(F)(F)F)nc1-c1ccc(OCC(O)CNCCOc2ccc(O)c(C(N)=O)c2)cc1 (configuration not stated)
82.4

Request the reported vessel count % control associated with C[N+](C)(C)CCO
96.9

Request the reported vessel count % control associated with O=c1[nH]c2cc(Cl)ccc2c(O)c1-c1ccc(Oc2ccccc2)cc1
66.8

Request the reported vessel count % control associated with NC(N)=NC(=O)c1nc(Cl)c(N)nc1N
117

Request the reported vessel count % control associated with CC(CCc1ccccc1)NC(C)C(O)c1ccc(O)cc1 (configuration not stated)
98.4

Request the reported vessel count % control associated with O=[N+]([O-])c1ccc2nc(N3CCNCC3)ccc2c1
118

Request the reported vessel count % control associated with CC(=O)OCC1=C(C(=O)[O-])N2C(=O)[C@@H](NC(=O)CCC[C@@H](N)C(=O)[O-])[C@H]2SC1.[Zn+2]
106
